These entries and their values trace back to ChEMBL document CHEMBL4602726.

# Tested System: Cytochrome P450 2C19 (Homo sapiens)
# Sequence (P33261 whole entry, canonical isoform): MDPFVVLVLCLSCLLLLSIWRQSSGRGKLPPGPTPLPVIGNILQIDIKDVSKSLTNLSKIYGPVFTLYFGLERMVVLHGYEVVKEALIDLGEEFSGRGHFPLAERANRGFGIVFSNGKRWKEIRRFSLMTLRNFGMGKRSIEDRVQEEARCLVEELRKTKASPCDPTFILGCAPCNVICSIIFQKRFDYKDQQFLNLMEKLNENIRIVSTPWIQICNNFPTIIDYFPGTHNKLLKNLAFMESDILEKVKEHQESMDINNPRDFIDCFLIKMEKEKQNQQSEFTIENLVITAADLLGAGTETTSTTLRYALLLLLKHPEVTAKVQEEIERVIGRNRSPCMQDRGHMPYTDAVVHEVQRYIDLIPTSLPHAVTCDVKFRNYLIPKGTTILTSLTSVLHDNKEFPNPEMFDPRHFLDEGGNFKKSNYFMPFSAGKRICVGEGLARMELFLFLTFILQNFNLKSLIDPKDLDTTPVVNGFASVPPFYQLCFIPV
# Measurement Protocol: Inhibition of CYP2C19 in human liver microsomes using isoform-specific probe substrates incubated for 15 to 30 mins by LC-MS/MS analysis
Experimental Readout: IC50 (µM)
Could you give me the number in µM? Just the number is fine.

Hello, please tell me recorded IC50 for this one: CC(C)CCNC1=CC(=O)c2ccccc2C1=O
16.4

====

# Measurement Protocol: Toxicity in mouse HT22 cells assessed as inhibition of cell viability at 50 uM incubated for 48 hrs by Cell-titer-Blue dye based fluorescence spectrophotometry relative to control
# Set-up: species or system HT-22
# Test Parameters: read-out: Activity
Experimental Readout: inhibition at 48 h, 50 µM (%)
Give a bare numeral; the unit % is implied.

Recorded results for 6 compounds are shown here.
O=C1C=C(NCCC2CCC2)C(=O)c2ccccc21 : 36.3
CC1=C(NCCC(C)C)C(=O)c2ccccc2C1=O : 21.4
CC(C)=CCNC1=CC(=O)c2ccccc2C1=O : 38.3
CC1=C(NCCC(C)(C)C)C(=O)c2ccccc2C1=O : 17.5
CC(C)CCCNC1=CC(=O)c2ccccc2C1=O : 21.3
CN(CCCNC1=CC(=O)c2ccccc2C1=O)c1ccccc1 : 10.2

Read the entry CC(C)CCNC1=CC(=O)c2ccccc2C1=O and write its reported inhibition at 48 h, 50 µM.
17.8

Consider the compound CN(C)CCCNC1=CC(=O)c2ccccc2C1=O and give its recorded inhibition at 48 h, 50 µM.
96.7

Quick one: give measured inhibition at 48 h, 50 µM for CC(C)(C)CNC1=CC(=O)c2ccccc2C1=O
22.4

====

# Measurement Protocol: Toxicity in mouse HT22 cells assessed as inhibition of cell viability at 50 uM incubated for 48 hrs by Cell-titer-Blue dye based fluorescence spectrophotometry relative to control
# Set-up: species or system HT-22
# Test Parameters: read-out: Activity
Experimental Readout: inhibition at 48 h, 50 µM (%)
Report as a plain number; the unit % is understood.

O=C1C=C(NCCC2CCCCC2)C(=O)c2ccccc21 : 2.09
O=C1C=C(NCCC2CC2)C(=O)c2ccccc21 : 56.4
O=C1C=C(NCC2CCC2)C(=O)c2ccccc21 : 62.3
CC(C)(C)CCNC1=CC(=O)c2ccccc2C1=O : 17
CN(C)CCNC1=CC(=O)c2ccccc2C1=O : 99.8

For the compound CCN(CC)CCNC1=CC(=O)c2ccccc2C1=O , give its reported inhibition at 48 h, 50 µM.
100

Give inhibition at 48 h, 50 µM for the following compound: O=C1C=C(NCCC2CCCC2)C(=O)c2ccccc21
43.8

Identify measured inhibition at 48 h, 50 µM associated with CC(C)(C)CCCNC1=CC(=O)c2ccccc2C1=O
6.75

Return the recorded inhibition at 48 h, 50 µM value; entry: CCC(C)CNC1=CC(=O)c2ccccc2C1=O (configuration not stated)
41.2

For the compound CC(C)(O)CCNC1=CC(=O)c2ccccc2C1=O , report inhibition at 48 h, 50 µM.
59.7

Supply inhibition at 48 h, 50 µM value. Item: CC(O)CCNC1=CC(=O)c2ccccc2C1=O (configuration not stated)
64.2

Return inhibition at 48 h, 50 µM (reported value) for this compound: O=C1C=C(NCC2CC2)C(=O)c2ccccc21
54.1

====

Listed next: entries and their corresponding Cmax.
# Measurement Protocol: Cmax in CD1 mouse at 20 mg/kg, ip measured after 0.083 to 24 hrs by LC-MS/MS analysis
# Format: ADME, organism-based
# Set-up: dose 20 mg/kg, route intraperitoneal
# Test Parameters: in vivo
Provide the reading as a plain figure in ng/mL.

C#CCNC1=CC(=O)c2ccccc2C1=O : 1490

Field: next molecule
For CC(C)CCNC1=CC(=O)c2ccccc2C1=O , write its Cmax.
320

====

# Measurement Protocol: Drug level in CD1 mouse brain at 400 mg/kg, ip after 0.5 hrs by LC-MS/MS analysis
# Assay type: ADME, organism-based
# Test Parameters: read-out: Drug uptake
Experimental Readout: concentration at 0.5 h (ng/g)
Answer format: numeric, ng/g implied, no suffix.

Output concentration at 0.5 h of CC(C)CCNC1=CC(=O)c2ccccc2C1=O
3320

====

# Measurement Protocol: Drug level in CD1 mouse brain at 400 mg/kg, ip after 1 hr by LC-MS/MS analysis
# Format: ADME, organism-based
# Test Parameters: read-out: Drug uptake
Experimental Readout: concentration at 1 h (ng/g)
Field format: number, assumed ng/g, no unit text.

Supply reported concentration at 1 h belonging to this compound: CC(C)CCNC1=CC(=O)c2ccccc2C1=O
3940

====

# Tested System: Cytochrome P450 1A2 (Homo sapiens, UniProt P05177)
# Sequence (P05177 whole entry, canonical isoform): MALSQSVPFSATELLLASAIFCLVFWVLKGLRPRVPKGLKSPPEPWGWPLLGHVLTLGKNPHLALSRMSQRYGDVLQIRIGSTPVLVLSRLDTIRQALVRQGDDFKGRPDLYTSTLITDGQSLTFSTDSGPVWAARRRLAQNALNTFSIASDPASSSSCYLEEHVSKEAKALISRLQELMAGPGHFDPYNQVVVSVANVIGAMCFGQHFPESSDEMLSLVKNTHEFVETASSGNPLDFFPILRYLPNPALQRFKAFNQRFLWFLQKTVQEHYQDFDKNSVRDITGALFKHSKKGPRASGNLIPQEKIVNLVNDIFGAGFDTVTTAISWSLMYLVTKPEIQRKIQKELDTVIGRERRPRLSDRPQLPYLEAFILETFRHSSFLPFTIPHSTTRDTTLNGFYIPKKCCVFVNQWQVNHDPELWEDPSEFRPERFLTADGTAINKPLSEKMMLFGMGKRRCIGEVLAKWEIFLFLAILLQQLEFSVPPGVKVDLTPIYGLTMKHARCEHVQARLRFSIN
# Measurement Protocol: Inhibition of CYP1A2 in human liver microsomes using isoform-specific probe substrates incubated for 15 to 30 mins by LC-MS/MS analysis
Experimental Readout: pIC50
// pIC50 here means minus log10 of the molar concentration (mol/L)

State its pIC50 for this compound: CC(C)CCNC1=CC(=O)c2ccccc2C1=O
5.25

====

# Measurement Protocol: Drug level in CD1 mouse brain at 400 mg/kg, ip after 2 hrs by LC-MS/MS analysis
# Assay type: ADME, organism-based
# Test Parameters: read-out: Drug uptake
Experimental Readout: concentration at 2 h (ng/g)
Your answer is read as ng/g, so omit the unit and give the number.

Find the measured concentration at 2 h of CC(C)CCNC1=CC(=O)c2ccccc2C1=O and report it.
4930

====

Below, each entry is listed alongside its reported inhibition at 48 h, 50 µM.
# Measurement Protocol: Toxicity in mouse HT22 cells assessed as inhibition of cell viability at 50 uM incubated for 48 hrs by Cell-titer-Blue dye based fluorescence spectrophotometry relative to control
# Parameters: species or system HT-22
# Test Parameters: read-out: Activity
Answer format: numeric, % implied, no suffix.

CC(C)CC(C)NC1=CC(=O)c2ccccc2C1=O (centres undefined) : 15
CCN(C)CCNC1=CC(=O)c2ccccc2C1=O : 101

Report inhibition at 48 h, 50 µM, nothing else, for this molecule: CCC(O)CNC1=CC(=O)c2ccccc2C1=O (centres undefined)
69

Answer with the recorded inhibition at 48 h, 50 µM of CC(CO)CCNC1=CC(=O)c2ccccc2C1=O (centres undefined) only.
76.7
